The measured values listed here are drawn from patent US12258328B2.

# TARGET OR TEST SYSTEM: EGFR del19/T790M/C797S (Homo sapiens, UniProt P00533, C797S/DEL746-750/T790M)
# Sequence (P00533 with tags, fused parts or gaps DEL746-750/T790M/C797S): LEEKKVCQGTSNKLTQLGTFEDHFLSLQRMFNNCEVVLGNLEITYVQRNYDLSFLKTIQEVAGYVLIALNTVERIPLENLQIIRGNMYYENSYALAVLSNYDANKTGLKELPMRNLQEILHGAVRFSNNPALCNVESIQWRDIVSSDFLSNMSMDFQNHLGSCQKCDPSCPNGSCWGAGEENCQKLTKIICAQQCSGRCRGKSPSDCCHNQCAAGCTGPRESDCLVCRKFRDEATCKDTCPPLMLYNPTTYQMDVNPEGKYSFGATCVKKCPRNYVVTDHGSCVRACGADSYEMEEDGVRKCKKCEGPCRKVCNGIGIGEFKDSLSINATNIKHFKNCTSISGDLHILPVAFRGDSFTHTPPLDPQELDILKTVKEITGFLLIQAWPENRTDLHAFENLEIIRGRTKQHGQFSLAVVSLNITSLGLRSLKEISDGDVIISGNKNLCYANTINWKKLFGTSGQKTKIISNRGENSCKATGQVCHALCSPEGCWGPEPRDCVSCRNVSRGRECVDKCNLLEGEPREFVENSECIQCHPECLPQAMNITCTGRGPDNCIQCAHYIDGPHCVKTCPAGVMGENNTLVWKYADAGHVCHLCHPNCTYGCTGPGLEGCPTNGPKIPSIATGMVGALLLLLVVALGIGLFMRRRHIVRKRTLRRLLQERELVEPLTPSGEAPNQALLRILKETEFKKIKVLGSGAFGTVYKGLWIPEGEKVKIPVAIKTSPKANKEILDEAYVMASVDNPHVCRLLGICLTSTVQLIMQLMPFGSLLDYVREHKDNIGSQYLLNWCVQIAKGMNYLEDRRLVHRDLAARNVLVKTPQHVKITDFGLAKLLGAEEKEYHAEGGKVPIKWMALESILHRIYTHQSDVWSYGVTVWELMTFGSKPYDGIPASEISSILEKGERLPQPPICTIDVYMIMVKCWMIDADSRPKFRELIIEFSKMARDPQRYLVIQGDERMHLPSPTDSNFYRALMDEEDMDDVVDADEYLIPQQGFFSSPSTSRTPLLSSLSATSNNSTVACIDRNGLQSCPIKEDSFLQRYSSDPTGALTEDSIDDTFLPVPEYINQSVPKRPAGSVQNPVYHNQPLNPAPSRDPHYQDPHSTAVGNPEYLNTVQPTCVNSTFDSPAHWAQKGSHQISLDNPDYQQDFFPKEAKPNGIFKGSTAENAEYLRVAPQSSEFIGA
# EXPERIMENTAL PROTOCOL: Biochemical EGFR kinase assay (Lance Ultra TR-FRET), triple mutant del19/T790M/C797S
# CONDITION PARAMETERS: IC50 del19/T790M/C797S (nM) 100 μM ATP, 100 μM ATP
In this section, each of the molecules is paired with its reported IC50.
The answer is to be given in nM; state only the numeric part.

molecule="CN(C)Cc1ccnc(-c2cnc(Nc3ccnc(-c4cnn(S(=O)(=O)C5CC5)c4)n3)cc2N[C@H]2CC[C@@](C)(O)CC2)c1 [Example 64]" property_label=IC50 observed_value=0.1
molecule="O=S(=O)(C1CC1)n1cc(-c2nccc(Nc3cc(N[C@H]4CC[C@@H](CO)CC4)c(-c4ccc(CO)cn4)cn3)n2)cn1 [Example 22]" property_label=IC50 observed_value=0.3
molecule="CN(C)c1cnc(-c2cnc(Nc3ccnc(-c4cnn(S(=O)(=O)C5CC5)c4)n3)cc2N[C@H]2CC[C@@](C)(O)CC2)nc1 [Example 39]" property_label=IC50 observed_value=2.1
molecule="CC(C)(O)[C@H]1CC[C@@H](Nc2cc(Nc3ccnc(-c4cnn(S(=O)(=O)C5CC5)c4)n3)ncc2-c2ccc(CN3CCOCC3)cn2)CC1 [Example 25]" property_label=IC50 observed_value=1.1

Request: IC50, test system EGFR del19/T790M/C797S (Homo sapiens, UniProt P00533, C797S/DEL746-750/T790M), entry C[C@]1(O)CC[C@@H](Nc2cc(Nc3ccnc(-c4cnn(S(=O)(=O)C5CC5)c4)n3)ncc2-c2ccc(N3CC(F)(F)C3)nn2)CC1 [Example 66] 0.5

Fill in the recorded IC50 for this molecule, with EGFR del19/T790M/C797S (Homo sapiens, UniProt P00533, C797S/DEL746-750/T790M) as test system: CN(C)C[C@H]1CC[C@@H](Nc2cc(Nc3ccnc(-c4cnn(S(=O)(=O)C5CC5)c4)n3)ncc2-c2cc(N3CCC(F)(F)CC3)ccn2)CC1 [Example 101] 0.9

###

# TARGET OR TEST SYSTEM: EGFR del19/C797S (Homo sapiens, UniProt P00533, C797S/DEL746-750)
# Sequence (P00533 with tags, fused parts or gaps DEL746-750/C797S): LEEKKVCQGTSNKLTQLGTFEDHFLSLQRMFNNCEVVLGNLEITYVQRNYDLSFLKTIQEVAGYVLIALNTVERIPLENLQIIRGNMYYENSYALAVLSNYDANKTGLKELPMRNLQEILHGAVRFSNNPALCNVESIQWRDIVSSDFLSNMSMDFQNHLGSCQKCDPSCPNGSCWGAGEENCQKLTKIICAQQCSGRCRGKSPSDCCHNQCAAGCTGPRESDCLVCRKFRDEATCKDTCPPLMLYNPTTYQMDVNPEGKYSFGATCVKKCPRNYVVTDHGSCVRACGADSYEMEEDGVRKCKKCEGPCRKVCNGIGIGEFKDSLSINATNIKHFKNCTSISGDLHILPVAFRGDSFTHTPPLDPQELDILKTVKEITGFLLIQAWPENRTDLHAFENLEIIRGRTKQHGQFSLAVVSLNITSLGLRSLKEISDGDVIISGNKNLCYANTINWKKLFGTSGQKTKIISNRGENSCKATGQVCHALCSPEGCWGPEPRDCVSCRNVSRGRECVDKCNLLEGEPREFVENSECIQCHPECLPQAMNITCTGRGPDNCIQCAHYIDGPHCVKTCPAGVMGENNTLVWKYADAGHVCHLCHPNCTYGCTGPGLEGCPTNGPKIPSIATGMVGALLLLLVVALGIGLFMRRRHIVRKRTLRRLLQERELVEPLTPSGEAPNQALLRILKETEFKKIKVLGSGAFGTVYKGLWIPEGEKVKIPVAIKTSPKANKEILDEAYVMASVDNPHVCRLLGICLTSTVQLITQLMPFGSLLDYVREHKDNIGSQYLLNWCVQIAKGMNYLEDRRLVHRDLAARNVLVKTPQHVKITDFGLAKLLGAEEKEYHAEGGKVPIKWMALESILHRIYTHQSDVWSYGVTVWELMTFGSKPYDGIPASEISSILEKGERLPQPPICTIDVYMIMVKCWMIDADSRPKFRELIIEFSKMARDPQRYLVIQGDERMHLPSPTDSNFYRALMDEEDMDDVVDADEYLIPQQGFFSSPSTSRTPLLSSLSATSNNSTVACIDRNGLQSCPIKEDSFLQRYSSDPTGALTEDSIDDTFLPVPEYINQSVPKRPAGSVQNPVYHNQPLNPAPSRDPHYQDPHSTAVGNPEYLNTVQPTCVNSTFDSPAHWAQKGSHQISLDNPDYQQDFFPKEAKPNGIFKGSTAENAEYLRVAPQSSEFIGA
# EXPERIMENTAL PROTOCOL: Biochemical EGFR kinase assay (Lance Ultra TR-FRET), double mutant del19/C797S
# CONDITION PARAMETERS: ATP at Km; read-out: IC50 del19/C797S, Km ATP
# Protocol: Biochemical EGFR kinase assays were conducted using Lance Ultra time-resolved fluorescence resonance energy transfer (TR-FRET) technology from Perkin-Elmer. […] Each kinase reactions were incubated at room temperature for 1 hour and then stopped by the addition of 4 μL of stop solution (10 mM EDTA). […] After 60 minutes incubation at room temperature the LANCE signal was measured on an EnVision Multilabel Reader (Perkin-Elmer). […]
pIC50: −log10 of the molar value.
# if value of pIC50 reaches 9, tag condition met; if it stays below, tag condition not met

Some solved cases for reference:
molecule="CN1CCC(Oc2ccc(-c3cnc(Nc4ccnc(-c5cnn(S(=O)(=O)C6CC6)c5)n4)cc3N[C@H]3CC[C@@H](F)CC3)nn2)CC1 [Example 270]" target_or_test_system="EGFR del19/C797S (Homo sapiens, UniProt P00533, C797S/DEL746-750)" group="condition not met"
molecule="CN1CCC(Oc2ccc(-c3cnc(Nc4ccnc(-c5cnn(S(=O)(=O)C6CC6)c5)n4)cc3NC3CCN(CCF)CC3)nc2)CC1 [Example 256]" target_or_test_system="EGFR del19/C797S (Homo sapiens, UniProt P00533, C797S/DEL746-750)" group="condition not met"
molecule="CS(=O)(=O)c1ccc(-c2cnc(Nc3ccnc(-c4cnn(S(=O)(=O)C5CC5)c4)n3)cc2N[C@H]2CC[C@@](C)(O)CC2)nc1 [Example 156]" target_or_test_system="EGFR del19/C797S (Homo sapiens, UniProt P00533, C797S/DEL746-750)" group="condition met"
molecule="CN1CCN(C(=O)c2ccc(-c3cnc(Nc4ccnc(-c5cnn(S(=O)(=O)C6CC6)c5)n4)cc3N[C@H]3CC[C@@](C)(O)CC3)nc2)CC1 [Example 199]" target_or_test_system="EGFR del19/C797S (Homo sapiens, UniProt P00533, C797S/DEL746-750)" group="condition met"
molecule="CC(C)(O)[C@H]1CC[C@@H](Nc2cc(Nc3ccnc(-c4cnn(S(=O)(=O)C5CC5)c4)n3)ncc2-c2ccc(C(=O)N3CCOCC3)cn2)CC1 [Example 201]" target_or_test_system="EGFR del19/C797S (Homo sapiens, UniProt P00533, C797S/DEL746-750)" group="condition met"

Below: the item to evaluate.
Form field: pIC50 at least 9? Entry: C[C@]1(O)CC[C@@H](Nc2cc(Nc3ccnc(-c4cnn(S(=O)(=O)C5CC5)c4)n3)ncc2-c2cnc(OC3CCN(CCF)CC3)cn2)CC1 [Example 153] condition met
